Sourced from the RNAGym collection of RNA variant scans (doi:10.7554/elife.80360)

B1: HDV Ribozyme (parent)
chain: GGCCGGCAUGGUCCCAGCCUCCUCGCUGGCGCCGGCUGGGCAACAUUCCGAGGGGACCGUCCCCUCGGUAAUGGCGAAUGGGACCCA

variants of: B1; assay: self-cleavage, relative activity (ratio to wild type); higher = more cleavage; co-transcriptional
# if value of self-cleavage reaches 0.4, tag YES; if it stays below, tag NO

VARIANT KEY	ASSIGNED LABEL
G34C A43U	NO
U47C G67C	YES
G1U G76U	NO
C19A G31A	NO
G29C C48U	NO
G39A A45C	NO
C13A G34A	NO
A16G C49U	YES
C4U C63U	YES
U69A A87G	YES
C18A C63U	NO
U60C U72A	YES
C21G G81U	NO
C22U A56C	YES
G25C G52U	NO
G39U A45U	NO
C19G C64U	NO
C24A G76C	YES
G5C C85A	NO
C22U A77G	NO
C26G C62G	YES
A8G C86G	YES
